Test: Charge per mass of developers after exercise periods, MECCA device
Format: physicochemical
Details: 5 pph added acid; clear polyester toner, Binder C resin, 2 pph Bontron E-84
Assay readout: Fresh Developer 10 min exercise (charge values) (μC/g)
Give bare numbers, in μC/g.

# annotated cases, reported Fresh Developer 10 min exercise (charge values) shown
{"columns": ["Smiles str", "Unit label", "Readout number"],
 "data": [
  ["C=C(CC(=O)O)C(=O)O", "μC/g", "−24.1"],
  ["Nc1ccc(C(=O)O)cc1", "μC/g", "−71.6"],
  ["O=C(O)CCCC(=O)O", "μC/g", "−11.8"]
]}

Provide each entry's Fresh Developer 10 min exercise (charge values) from the list below.
1. O=C(O)c1ccccc1O
2. O=C(O)c1ccc(C(=O)O)cc1

Result string:
1. −41.1
2. −13.8

###

Experiment: Charge per mass of developers after exercise periods, MECCA device
Type: physicochemical
Conditions: 1 pph added acid; clear polyester toner, Binder C resin, 2 pph Bontron E-84
Fresh developer 2 min shake (charge values) less than -20 μC/g is criterion met; Fresh developer 2 min shake (charge values) greater than or equal to -20 μC/g is criterion not met.

{"columns": ["Smiles str", "Label class"],
 "data": [
  ["O=C(O)CCCC(=O)O", "criterion not met"],
  ["CCCCCCCCCCCC(=O)O", "criterion met"],
  ["O=C(O)c1ccccc1O", "criterion met"]
]}

Query string: Hi there! Is Fresh developer 2 min shake (charge values) for "Nc1ccc(C(=O)O)cc1" below -20 μC/g, do you know?
Result string: criterion met

Query string: A record lists "O=C(O)c1ccc(C(=O)O)cc1" . Is its Fresh developer 2 min shake (charge values) below -20 μC/g?
Result string: criterion met

Query string: Quick check: Fresh developer 2 min shake (charge values) of "C=C(CC(=O)O)C(=O)O" under -20 μC/g?
Result string: criterion not met

###

What Rebuilt developer 10 min exercise (charge values) was measured for each of the following?
Assay: Charge per mass of developers after exercise periods, MECCA device
Assay type: physicochemical
Conditions: 5 pph added acid; clear polyester toner, Binder C resin, 2 pph Bontron E-84

{"columns": ["Smiles str", "Result"],
 "data": [
  ["O=C(O)c1ccccc1O", "−42.8 μC/g"],
  ["O=C(O)c1ccc(C(=O)O)cc1", "−13.3 μC/g"],
  ["Nc1ccc(C(=O)O)cc1", "−60.5 μC/g"],
  ["C=C(CC(=O)O)C(=O)O", "−18.7 μC/g"]
]}

Query string: Tell me measured Rebuilt developer 10 min exercise (charge values) for "O=C(O)CCCC(=O)O" please.
Result string: −13.3 μC/g

###

For each entry below, report its pKa value.
Experiment: pKa values measured by titrimetry
Type: physicochemical
Details: (a) values measured by titrimetry; read-out: pKa 1
Give bare numbers.

{"columns": ["Smiles str", "pKa"],
 "data": [
  ["CC1=NN(c2ccccc2)C(=O)C1", 6.6]
]}

Query string: Note down pKa recorded for "CCOC(=O)/C=C/C(=O)O"
Result string: 3.5

###

Experiment: Charge per mass of developers after exercise periods, MECCA device
Type: physicochemical
Settings: 1 pph added acid; clear polyester toner, Binder C resin, 2 pph Bontron E-84
Assay readout: Rebuilt developer 10 min exercise (charge values)
Could you give the number and then its unit, please?

{"columns": ["Smiles str", "Result"],
 "data": [
  ["O=C(O)CCCC(=O)O", "−30.1 μC/g"],
  ["C=C(CC(=O)O)C(=O)O", "−22.6 μC/g"],
  ["Nc1ccc(C(=O)O)cc1", "−67.7 μC/g"]
]}

Please state Rebuilt developer 10 min exercise (charge values) for every compound in the list that follows.
1. O=C(O)c1ccccc1O
2. O=C(O)c1ccc(C(=O)O)cc1
3. CCCCCCCCCCCC(=O)O

Result string:
["−46.5 μC/g", "−37.9 μC/g", "−90.8 μC/g"]

###

Experiment: Charge per mass of developers after exercise periods, MECCA device
Type: physicochemical
Conditions: 0.2 pph added acid; clear polyester toner, Binder C resin, 2 pph Bontron E-84
Assay readout: Rebuilt developer 2 min shake (charge values) (μC/g)
Numbers only, in μC/g.

{"columns": ["Molecule", "Unit label", "Readout number"],
 "data": [
  ["CCCCCCCCCCCC(=O)O [Lauric acid]", "μC/g", "−60.1"],
  ["C=C(CC(=O)O)C(=O)O [Itaconic acid]", "μC/g", "−41.3"],
  ["O=C(O)c1ccccc1O [Salicylic acid]", "μC/g", "−46.5"],
  ["Nc1ccc(C(=O)O)cc1 [4-aminobenzoic acid]", "μC/g", "−63.2"]
]}

For every item below, please supply its Rebuilt developer 2 min shake (charge values).
1. O=C(O)c1ccc(C(=O)O)cc1 [Terephthalic acid]
2. O=C(O)CCCC(=O)O [Glutaric acid]

Result string:
["−45.3", "−45.7"]

###

Assay: Charge per mass of developers after exercise periods, MECCA device
Assay type: physicochemical
Settings: 1 pph added acid; clear polyester toner, Binder C resin, 2 pph Bontron E-84
Mark no (0) for Fresh Developer 10 min exercise (charge values) values under -50 μC/g, and yes (1) for everything at or above.

Known results for molecules:
{"columns": ["Molecule", "Label class"],
 "data": [
  ["Nc1ccc(C(=O)O)cc1 [4-aminobenzoic acid]", "no (0)"],
  ["CCCCCCCCCCCC(=O)O [Lauric acid]", "no (0)"],
  ["C=C(CC(=O)O)C(=O)O [Itaconic acid]", "yes (1)"],
  ["O=C(O)CCCC(=O)O [Glutaric acid]", "yes (1)"]
]}

Below: the item to evaluate.
Query string: In plain terms: is recorded Fresh Developer 10 min exercise (charge values) at least -50 μC/g for O=C(O)c1ccc(C(=O)O)cc1 [Terephthalic acid] ?
Result string: yes (1)

###

Assay: Charge per mass of developers after exercise periods, MECCA device
Assay type: physicochemical
Conditions: 0.2 pph added acid; clear polyester toner, Binder C resin, 2 pph Bontron E-84
Please respond with reported Rebuilt developer 10 min exercise (charge values) for every item in the list.
Answers are plain numbers, in μC/g.

In the examples that follow, each entry is paired with its recorded Rebuilt developer 10 min exercise (charge values).
{"columns": ["Compound", "Readout number"],
 "data": [
  ["C=C(CC(=O)O)C(=O)O [Itaconic acid]", "−49.7"],
  ["O=C(O)CCCC(=O)O [Glutaric acid]", "−58.1"],
  ["CCCCCCCCCCCC(=O)O [Lauric acid]", "−77.5"],
  ["O=C(O)c1ccc(C(=O)O)cc1 [Terephthalic acid]", "−49.8"]
]}

Fill in Rebuilt developer 10 min exercise (charge values) for each of the 2 compounds listed.
1. O=C(O)c1ccccc1O [Salicylic acid]
2. Nc1ccc(C(=O)O)cc1 [4-aminobenzoic acid]

Result string:
1: −62.0; 2: −72.1

###

Assay: Charge per mass of developers after exercise periods, MECCA device
Assay type: physicochemical
Details: 5 pph added acid; clear polyester toner, Binder C resin, 2 pph Bontron E-84
Note to self: Rebuilt developer 2 min shake (charge values) under -40 μC/g means Condition met, ties and anything higher get Condition not met.

Below are worked cases with known answers.
{"columns": ["Smiles str", "Label class"],
 "data": [
  ["Nc1ccc(C(=O)O)cc1", "Condition met"],
  ["O=C(O)c1ccccc1O", "Condition not met"],
  ["O=C(O)c1ccc(C(=O)O)cc1", "Condition not met"]
]}

Query string: Item "O=C(O)CCCC(=O)O" : Rebuilt developer 2 min shake (charge values) beneath -40 μC/g, strictly?
Result string: Condition not met

Query string: Answer whether the compound "CCCCCCCCCCCC(=O)O" has Rebuilt developer 2 min shake (charge values) strictly less than -40 μC/g
Result string: Condition not met

Query string: Strictly below -40 μC/g in Rebuilt developer 2 min shake (charge values)? "C=C(CC(=O)O)C(=O)O"
Result string: Condition not met

###

Assay: Charge per mass of developers after exercise periods, MECCA device
Type: physicochemical
Conditions: 0.2 pph added acid; clear polyester toner, Binder C resin, 2 pph Bontron E-84
Assay readout: Fresh developer 2 min shake (charge values)
Answer by giving the amount and then stating its unit.

{"columns": ["Smiles str", "Result"],
 "data": [
  ["CCCCCCCCCCCC(=O)O", "−44.3 μC/g"],
  ["O=C(O)c1ccccc1O", "−22.7 μC/g"]
]}

Hello, I would appreciate it if you could give Fresh developer 2 min shake (charge values) for each entry below.
1. O=C(O)CCCC(=O)O
2. C=C(CC(=O)O)C(=O)O
3. O=C(O)c1ccc(C(=O)O)cc1
4. Nc1ccc(C(=O)O)cc1

Result string:
1: −26.5 μC/g; 2: −20.6 μC/g; 3: −25.5 μC/g; 4: −35.3 μC/g

###

Can you tell me Fresh developer 2 min shake (charge values) for the items I'm about to list?
Assay: Charge per mass of developers after exercise periods, MECCA device
Assay type: physicochemical
Conditions: 5 pph added acid; clear polyester toner, Binder C resin, 2 pph Bontron E-84
Numbers only, in μC/g.

Sample records with Fresh developer 2 min shake (charge values):
{"columns": ["Smiles str", "Readout number"],
 "data": [
  ["Nc1ccc(C(=O)O)cc1", "−36.9"],
  ["O=C(O)CCCC(=O)O", "−6.2"],
  ["C=C(CC(=O)O)C(=O)O", "−11.9"],
  ["O=C(O)c1ccc(C(=O)O)cc1", "−28.3"],
  ["CCCCCCCCCCCC(=O)O", "−14.7"]
]}

Turning now to a further compound:
Query string: Return value of Fresh developer 2 min shake (charge values) for input "O=C(O)c1ccccc1O" , no commentary.
Result string: −17.4

Taken from patent US6692880B2.
